- procedure-summary: solvent given as SMILES
- condition-description: in CC#N
property-name: emission maximum (nm)
Respond numerically; units are nm and should not be typed.

What does the data say about its emission maximum? Entry: `Cc1ccc(-c2cc(C)[o+]c(C)c2)cc1`
435

Cool, now `COc1ccc(-c2csc(/C(C#N)=C/c3ccc(Cl)cc3Cl)n2)cc1`
557

Cool, now `C(=C\c1nc(/C=C/c2ccc(N(c3ccccc3)c3ccccc3)cc2)cc(/C=C/c2ccc(N(c3ccccc3)c3ccccc3)cc2)n1)/c1ccccc1`
591

Cool, now `Clc1nc(Nc2ccccc2)nc(Nc2ccc3cc4ccccc4cc3c2)n1`
432

Cool, now `COC(=O)/C=C/c1sc(-c2ccc(N(C)C)s2)c(-c2ccsc2)c1N`
557

Cool, now `CCOC(=O)COc1ccc(/C=C/c2c(CC)c(C)c3n2[B-](F)(F)[N+]2=C(c4[nH]c(C)c(CC)c4C)c4ccccc4C2=C3C)cc1`
707

Cool, now `CCCCC1(CCCC)c2cc(C#Cc3ccc4ccc5cccc6ccc3c4c56)ccc2-c2ccc(C#Cc3ccc4ccc5cccc6ccc3c4c56)cc21`
433

Cool, now `CCc1ccc(/C=C/c2ccc(-c3nnc(-c4ccc(-c5cc6ccccc6s5)cc4)o3)cc2)cc1`
421
